# test.target: Peregrin (Homo sapiens)
# Sequence (whole entry): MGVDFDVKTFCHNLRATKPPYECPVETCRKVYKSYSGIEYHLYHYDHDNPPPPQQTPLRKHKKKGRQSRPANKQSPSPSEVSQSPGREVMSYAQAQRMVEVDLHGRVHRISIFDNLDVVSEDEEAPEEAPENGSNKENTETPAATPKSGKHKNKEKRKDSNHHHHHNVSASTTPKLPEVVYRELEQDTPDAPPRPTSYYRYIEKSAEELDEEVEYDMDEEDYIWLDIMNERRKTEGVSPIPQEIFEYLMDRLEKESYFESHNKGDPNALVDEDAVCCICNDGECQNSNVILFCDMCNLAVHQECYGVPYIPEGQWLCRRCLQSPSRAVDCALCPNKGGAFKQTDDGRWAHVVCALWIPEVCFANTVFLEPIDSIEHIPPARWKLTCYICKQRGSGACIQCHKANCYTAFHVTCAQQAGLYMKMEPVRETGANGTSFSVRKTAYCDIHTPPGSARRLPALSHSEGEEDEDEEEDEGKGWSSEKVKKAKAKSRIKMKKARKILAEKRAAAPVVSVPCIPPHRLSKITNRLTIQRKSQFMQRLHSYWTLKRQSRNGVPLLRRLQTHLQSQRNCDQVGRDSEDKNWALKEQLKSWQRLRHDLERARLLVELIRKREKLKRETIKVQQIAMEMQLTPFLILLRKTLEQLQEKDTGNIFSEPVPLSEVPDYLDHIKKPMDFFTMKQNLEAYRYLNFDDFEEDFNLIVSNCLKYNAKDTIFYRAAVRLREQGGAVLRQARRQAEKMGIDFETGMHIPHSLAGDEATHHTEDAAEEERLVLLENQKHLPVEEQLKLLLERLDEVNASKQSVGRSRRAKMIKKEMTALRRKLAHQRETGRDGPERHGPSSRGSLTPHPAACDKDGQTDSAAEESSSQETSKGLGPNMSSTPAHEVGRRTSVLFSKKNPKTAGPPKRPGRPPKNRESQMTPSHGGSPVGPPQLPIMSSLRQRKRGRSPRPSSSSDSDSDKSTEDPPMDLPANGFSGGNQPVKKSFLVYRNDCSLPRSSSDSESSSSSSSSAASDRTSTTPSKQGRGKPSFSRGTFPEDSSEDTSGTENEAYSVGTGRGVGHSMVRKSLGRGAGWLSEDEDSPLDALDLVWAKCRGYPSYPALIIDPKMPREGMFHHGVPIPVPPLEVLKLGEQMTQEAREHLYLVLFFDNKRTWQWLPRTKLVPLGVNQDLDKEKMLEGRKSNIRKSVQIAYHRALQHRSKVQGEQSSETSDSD
# condition.context: Compound concentration 20.0 uM
// classify: if (ΔTm < -1 °C) satisfied else not satisfied

Below are worked cases with known answers.
molecule | category.label
Cc1ccc([N+](=O)[O-])cc1S(=O)(=O)N(C)C | not satisfied
CC(=O)O[C@]1(C(C)=O)CC[C@H]2[C@@H]3C=C(Cl)C4=CC(=O)[C@@H]5C[C@@H]5[C@]4(C)[C@H]3CC[C@@]21C | satisfied
O=C(c1cccc(-c2ccc(-c3cn(C(=O)N4CCCCC4c4ccccc4)nn3)cc2)c1)N1CCCCC1 (centres undefined) | not satisfied

(Q) Say whether its ΔTm is strictly beneath -1 °C. Entry: `O=c1[nH][nH]c(=O)c2cc(OCc3ccsc3)ccc12`
(A) not satisfied

(Q) Field entry: `COc1cc(C)[nH]c(=O)c1CNC(=O)c1c(C)n([C@H](C)C2CCN(CC(F)(F)F)CC2)c2ccccc12`
(A) satisfied

(Q) Field entry: `COC(=O)C[C@@H]1N=C(c2ccc(Cl)cc2)c2c(sc(C)c2C)-n2c(C)nnc21`
(A) not satisfied

(Q) Field entry: `CNCCCN1c2ccccc2CCc2ccccc21`
(A) not satisfied

(Q) Field entry: `CC(=O)N[C@@H](CC(=O)O)C(=O)N[C@@H](CCC(=O)O)C(=O)N[C@H](C(=O)N[C@H](C=O)CC(=O)O)C(C)C`
(A) satisfied

Attribution: ChEMBL document CHEMBL5724796
